- target_or_test_system: human ALK2 R206H (Homo sapiens, UniProt Q04771, R206H)
- Construct: expressed in transfected cells; host or cells: HEK293 (ATCC CRL1573), lentivirus transduction, blasticidin selection
- Sequence (Q04771 21-509 R206H): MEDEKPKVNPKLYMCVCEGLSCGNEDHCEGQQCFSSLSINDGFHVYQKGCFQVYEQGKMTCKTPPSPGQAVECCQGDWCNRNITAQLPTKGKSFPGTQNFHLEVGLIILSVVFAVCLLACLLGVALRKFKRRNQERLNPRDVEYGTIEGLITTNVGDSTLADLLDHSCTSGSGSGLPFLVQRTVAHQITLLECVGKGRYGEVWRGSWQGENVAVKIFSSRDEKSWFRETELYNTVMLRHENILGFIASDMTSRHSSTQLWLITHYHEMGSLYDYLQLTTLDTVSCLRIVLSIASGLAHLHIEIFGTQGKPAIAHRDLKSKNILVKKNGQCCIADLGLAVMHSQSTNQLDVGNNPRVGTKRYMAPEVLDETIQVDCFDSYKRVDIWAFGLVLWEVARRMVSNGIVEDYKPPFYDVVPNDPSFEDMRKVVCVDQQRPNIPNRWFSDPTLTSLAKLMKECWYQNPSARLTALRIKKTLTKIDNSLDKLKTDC
- protocol_notes: Cell-based ALK2-R206H cell activity assay (Smad1-Ser463/Ser465 phosphorylation by AlphaLISA in HEK293-ALK2-R206H cells)
- protocol_conditions: read-out: Cell Line (Cell Assay IC50)
pIC50: −log10 of the molar value.
value_kind: pIC50

Qu. What does the record list as pIC50 for `CCOC(=O)N1CCN(c2ccnn3cc(-c4ccc([C@]5(OCC)CCCNC5)cc4)cc23)CC1` ?
Ans. > 7.00

Qu. What does the record list as pIC50 for O=C(C1CC(F)C1)N1CCN(c2ccnn3cc(-c4ccc(N5CCNCC5)cc4)cc23)CC1 (stereo not shown) ?
Ans. > 7.00

Qu. What does the record list as pIC50 for `CCC(=O)N1CCN(c2ccnn3cc(-c4ccc(N5CCN(CC)CC5)cc4)cc23)CC1` ?
Ans. < 6.30

Qu. What does the record list as pIC50 for `CCOC(=O)N1CCN(c2ccnn3cc(-c4ccc(N5CC6(C5)CN(C(C)C)C6)cc4)cc23)CC1` ?
Ans. 6.30 to 7.00

Qu. What does the record list as pIC50 for `CCO[C@@]1(c2ccc(-c3cc4c(N5CCN(C(=O)OC6COC6)CC5)ccnn4c3)cc2)CCCNC1` ?
Ans. > 7.00

Qu. What does the record list as pIC50 for O=C(C1CC1)N1CCN(c2ccnn3cc(-c4ccc(C5CCNCC5(F)F)cc4)cc23)CC1 (stereo not shown) ?
Ans. 6.30 to 7.00

Qu. What does the record list as pIC50 for `CCN1CC(c2ccc(-c3cc4c(N5CCN(C(=O)C6CC6)CC5)ccnn4c3)cc2)C1` ?
Ans. > 7.00

Qu. What does the record list as pIC50 for `CC(C)N1CCC(c2ccc(-c3cc4c(N5CCN(C(=O)NC6COC6)CC5)ccnn4c3)cc2)CC1` ?
Ans. > 7.00

Qu. What does the record list as pIC50 for CCN1CCC(c2ccc(-c3cc4c(N5CCN(C(=O)C6CC6)CC5)ccnn4c3)cc2)C(F)C1 (stereo not shown) ?
Ans. > 7.00

Qu. What does the record list as pIC50 for `COCC1(c2ccc(-c3cc4c(N5CCN(C(=O)C6CC6)CC5)ccnn4c3)cc2)CCN(C(C)C)CC1` ?
Ans. > 7.00

Qu. What does the record list as pIC50 for `CC(C)N1CCC[C@H](c2ccc(-c3cc4c(N5CCN(C(=O)[C@H]6C[C@H](C#N)C6)CC5)ccnn4c3)cc2)C1` ?
Ans. > 7.00

Qu. What does the record list as pIC50 for `CC(C)NC(=O)N1CCN(c2ccnn3cc(-c4cnn([C@@H]5CCCNC5)c4)cc23)CC1` ?
Ans. > 7.00

Qu. What does the record list as pIC50 for COC1(c2ccc(-c3cc4c(N5CCN(C(=O)C6CC(C#N)C6)CC5)ccnn4c3)cc2)CN(C(C)C)C1 (stereo not shown) ?
Ans. > 7.00
